// values below are reported MIC
test system: Staphylococcus aureus S13E; type: cell-based

compound: CNC(CC(C)C)C(=O)NC1C(=O)NC(CC(N)=O)C(=O)NC2C(=O)NC3C(=O)NC(C(=O)NC(C(=O)O)c4cc(O)cc(O)c4-c4cc3ccc4O)C(OC3CC(C)(N)C(O)C(C)O3)c3ccc(c(Cl)c3)Oc3cc2cc(c3OC2OC(CO)C(O)C(O)C2OC2CC(C)(NCc3ccc(OCc4ccccc4)c(OCc4ccccc4)c3)C(O)C(C)O2)Oc2ccc(cc2Cl)C1O (centres unmarked)
MIC: 2 µg/mL

Item: CNC(CC(C)C)C(=O)NC1C(=O)NC(CC(N)=O)C(=O)NC2C(=O)NC3C(=O)NC(C(=O)NC(C(=O)O)c4cc(O)cc(O)c4-c4cc3ccc4O)C(OC3CC(C)(N)C(O)C(C)O3)c3ccc(c(Cl)c3)Oc3cc2cc(c3OC2OC(CO)C(O)C(O)C2OC2CC(C)(NCc3ccc(N4CCOCC4)cc3)C(O)C(C)O2)Oc2ccc(cc2Cl)C1O (centres unmarked) | MIC: 1 µg/mL

---

tested on: vancomycin-resistant enterococci; assay: broth micro-dilution, mean geometric MIC; type: cell-based, Enterococcus faecium and Enterococcus faecalis; details: enterococci, 24-hour incubation
endpoint: mean geometric MIC, Vancomycin Resistant Strains (µg/mL)
The figure you give is taken to be in µg/mL; do not add the unit.

molecule: CNC(CC(C)C)C(=O)NC1C(=O)NC(CC(N)=O)C(=O)NC2C(=O)NC3C(=O)NC(C(=O)NC(C(=O)O)c4cc(O)cc(O)c4-c4cc3ccc4O)C(OC3CC(C)(N)C(O)C(C)O3)c3ccc(cc3)Oc3cc2cc(c3OC2OC(CO)C(O)C(O)C2OC2CC(C)(NCc3ccc(-c4ccccc4)cc3)C(O)C(C)O2)Oc2ccc(cc2Cl)C1O (stereo not drawn)
result: 13
//
molecule: CNC(CC(C)C)C(=O)NC1C(=O)NC(CC(N)=O)C(=O)NC2C(=O)NC3C(=O)NC(C(=O)NC(C(=O)O)c4cc(O)cc(O)c4-c4cc3ccc4O)C(OC3CC(C)(N)C(O)C(C)O3)c3ccc(c(Cl)c3)Oc3cc2cc(c3OC2OC(CO)C(O)C(O)C2OC2CC(C)(NCc3cccc(Oc4cccc(C(F)(F)F)c4)c3)C(O)C(C)O2)Oc2ccc(cc2Cl)C1O (stereo not drawn) [Compound 111]
result: 0.71

Attention now shifts to the item below.
Item: CNC(CC(C)C)C(=O)NC1C(=O)NC(CC(N)=O)C(=O)NC2C(=O)NC3C(=O)NC(C(=O)NC(C(=O)O)c4cc(O)cc(O)c4-c4cc3ccc4O)C(OC3CC(C)(N)C(O)C(C)O3)c3ccc(c(Cl)c3)Oc3cc2cc(c3OC2OC(CO)C(O)C(O)C2OC2CC(C)(NCc3ccc(OCc4ccc([N+](=O)[O-])cc4)cc3)C(O)C(C)O2)Oc2ccc(cc2Cl)C1O (stereo not drawn) | mean geometric MIC, Vancomycin Resistant Strains: 0.84

---

tested on: Staphylococcus aureus SA1199B; format: cell-based
// values below are reported MIC
The figure you give is taken to be in µg/mL; do not add the unit.

Use these answered entries as a reference point.
compound: CNC(CC(C)C)C(=O)NC1C(=O)NC(CC(N)=O)C(=O)NC2C(=O)NC3C(=O)NC(C(=O)NC(C(=O)O)c4cc(O)cc(O)c4-c4cc3ccc4O)C(OC3CC(C)(N)C(O)C(C)O3)c3ccc(c(Cl)c3)Oc3cc2cc(c3OC2OC(CO)C(O)C(O)C2OC2CC(C)(NCc3ccc(Sc4ccccc4)cc3)C(O)C(C)O2)Oc2ccc(cc2Cl)C1O (stereo not drawn) [Compound 108]
units of measure: µg/mL
MIC: 2
--
compound: CC(C)CC(C(=O)NC1C(=O)NC(CC(N)=O)C(=O)NC2C(=O)NC3C(=O)NC(C(=O)NC(C(=O)O)c4cc(O)cc(O)c4-c4cc3ccc4O)C(OC3CC(C)(N)C(O)C(C)O3)c3ccc(c(Cl)c3)Oc3cc2cc(c3OC2OC(CO)C(O)C(O)C2OC2CC(C)(NCc3cccnc3)C(O)C(C)O2)Oc2ccc(cc2Cl)C1O)N(C)Cc1cccnc1 (stereo not drawn) [Compound 280]
units of measure: µg/mL
MIC: 0.5

Attention now shifts to the item below.
Recorded MIC for CNC(CC(C)C)C(=O)NC1C(=O)NC(CC(N)=O)C(=O)NC2C(=O)NC3C(=O)NC(C(=O)NC(C(=O)O)c4cc(O)cc(O)c4-c4cc3ccc4O)C(OC3CC(C)(N)C(O)C(C)O3)c3ccc(c(Cl)c3)Oc3cc2cc(c3OC2OC(CO)C(O)C(O)C2OC2CC(C)(NCCCCCCCCCCc3ccccc3)C(O)C(C)O2)Oc2ccc(cc2Cl)C1O (stereo not drawn) [Compound 197] on Staphylococcus aureus SA1199B was 2
